- tgt: recombinant human CB2 receptor (Homo sapiens)
- assay.summary: CB2 receptor functional assay (cAMP)
- applied.conditions: CB2 receptor expressed in CHO cells
property.label: pEC50
# pEC50 = -log10(concentration in molar units)

The molecule C[C@H](NC(=O)C(C)(C)OC(=O)c1c(Cl)cccc1Cl)[C@@H](Cc1ccc(Cl)cc1)c1cccc(C#N)c1 showed pEC50 equal to 6.79

====

- tgt: recombinant human CB2 receptor (Homo sapiens, UniProt P34972)
- Construct: expressed in transfected cells
- Sequence (P34972 whole entry): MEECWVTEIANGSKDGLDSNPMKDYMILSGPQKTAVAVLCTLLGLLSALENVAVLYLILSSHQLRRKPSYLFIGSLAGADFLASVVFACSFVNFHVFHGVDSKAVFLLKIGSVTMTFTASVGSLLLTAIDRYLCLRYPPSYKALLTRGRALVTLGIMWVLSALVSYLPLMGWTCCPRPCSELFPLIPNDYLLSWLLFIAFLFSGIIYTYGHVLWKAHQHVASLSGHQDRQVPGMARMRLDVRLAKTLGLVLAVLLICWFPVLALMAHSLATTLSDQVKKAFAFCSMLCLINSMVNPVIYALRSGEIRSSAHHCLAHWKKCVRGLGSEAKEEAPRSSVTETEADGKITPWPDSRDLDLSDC
- assay.summary: CB2 receptor binding assay
- applied.conditions: receptor expressed in CHO cells
property.label: pIC50
Note on pIC50: it is the negative log10 of concentration, concentration in mol/L.

pIC50 for C[C@H](NC(=O)C(C)(C)OC(=O)c1c(Cl)cccc1Cl)[C@@H](Cc1ccc(Cl)cc1)c1cccc(C#N)c1 is 6.09

====

- tgt: recombinant human CB1 receptor (Homo sapiens)
- assay.summary: Cannabinoid Receptor-1 (CB1) binding assay
- applied.conditions: [3H]CP-55940 0.6 nM, receptor expressed in CHO cells
property.label: IC50 (nM)
Answer with a number only, understood to be in nM.

// recorded IC50 for C[C@H](NC(=O)C(C)(C)OC(=O)c1c(Cl)cccc1Cl)[C@@H](Cc1ccc(Cl)cc1)c1cccc(C#N)c1 : 2.54

====

- tgt: recombinant human CB1 receptor (Homo sapiens, UniProt P21554)
- Sequence (P21554 whole entry): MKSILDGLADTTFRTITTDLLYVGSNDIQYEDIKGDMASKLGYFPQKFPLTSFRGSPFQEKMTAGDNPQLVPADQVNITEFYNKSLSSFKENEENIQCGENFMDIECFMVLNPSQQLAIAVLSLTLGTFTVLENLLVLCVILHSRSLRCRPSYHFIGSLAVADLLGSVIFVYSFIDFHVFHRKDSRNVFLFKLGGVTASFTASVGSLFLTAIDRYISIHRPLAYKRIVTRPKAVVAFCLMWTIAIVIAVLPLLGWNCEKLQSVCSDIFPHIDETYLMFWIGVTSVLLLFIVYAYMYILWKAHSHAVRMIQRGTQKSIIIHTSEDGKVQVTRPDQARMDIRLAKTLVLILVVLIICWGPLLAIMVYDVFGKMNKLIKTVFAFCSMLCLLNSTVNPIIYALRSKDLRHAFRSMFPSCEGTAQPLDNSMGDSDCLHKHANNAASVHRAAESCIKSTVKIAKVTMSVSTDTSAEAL
- assay.summary: Cannabinoid Receptor-1 (CB1) functional activity assay (cAMP)
- applied.conditions: CB1-CHO cells, forskolin-stimulated cAMP
property.label: EC50 (nM)
Write the answer as a number in nM, unit excluded.

The reported value for C[C@H](NC(=O)C(C)(C)OC(=O)c1c(Cl)cccc1Cl)[C@@H](Cc1ccc(Cl)cc1)c1cccc(C#N)c1 [Example 30] in terms of EC50 is 1.85

Ref: patent US20120135975A1
